- SUBJECT OF TEST: CFTR ΔF508 (Homo sapiens, UniProt P13569, DEL508-508)
- Construct: bronchial epithelial cells isolated from CF patients homozygous for the CFTR ΔF508 mutation; McGill University; Asterand; University of North Carolina hAEC-CF; host or cells: primary human bronchial epithelial cells from CF patients homozygous for ΔF508
- TEST PROTOCOL: Chronic TECC assay on primary bronchial epithelial cells (corrector, co-corrector and potentiator)
- Assay type: cell-based
- EXPERIMENTAL CONTEXT: chronic TECC; 1 μM; AUC = full area under the curve upon forskolin stimulation; with co-corrector and potentiator, 24 hours
Recorded % Activity at 1 μM (AUC**) by entry

[
  {
    "CHEMICAL STRING": "O=C(O)c1cc(N2CCC(N3CCN(C4CC4)CC3)CC2)c2c(C3CCC3)nn(-c3ccccc3)c2n1",
    "UNIT": "%",
    "% Activity at 1 μM (AUC**)": 230
  },
  {
    "CHEMICAL STRING": "CC(C)c1nn(-c2ccc(F)cc2)c2nc(C(=O)O)cc(N3CCC(CN4CCCCC4)CC3)c12",
    "UNIT": "%",
    "% Activity at 1 μM (AUC**)": 220
  },
  {
    "CHEMICAL STRING": "O=C(O)c1cc(N2CCC(N3CCOCC3)CC2)c2c(C3CCC3)nn(-c3ccc(F)cc3)c2n1",
    "UNIT": "%",
    "% Activity at 1 μM (AUC**)": 373.3333
  },
  {
    "CHEMICAL STRING": "O=C(O)c1cc(N2CCC(CN3CCCC3)CC2)c2c(C3CCC3)nn(-c3ccccc3)c2n1",
    "UNIT": "%",
    "% Activity at 1 μM (AUC**)": 262
  }
]

---

- SUBJECT OF TEST: ΔF508-CFTR (Homo sapiens, UniProt P13569, DEL508-508)
- Construct: host or cells: CFBE41o-, doxycycline-inducible
- Sequence (P13569 with tags, fused parts or gaps DEL508-508): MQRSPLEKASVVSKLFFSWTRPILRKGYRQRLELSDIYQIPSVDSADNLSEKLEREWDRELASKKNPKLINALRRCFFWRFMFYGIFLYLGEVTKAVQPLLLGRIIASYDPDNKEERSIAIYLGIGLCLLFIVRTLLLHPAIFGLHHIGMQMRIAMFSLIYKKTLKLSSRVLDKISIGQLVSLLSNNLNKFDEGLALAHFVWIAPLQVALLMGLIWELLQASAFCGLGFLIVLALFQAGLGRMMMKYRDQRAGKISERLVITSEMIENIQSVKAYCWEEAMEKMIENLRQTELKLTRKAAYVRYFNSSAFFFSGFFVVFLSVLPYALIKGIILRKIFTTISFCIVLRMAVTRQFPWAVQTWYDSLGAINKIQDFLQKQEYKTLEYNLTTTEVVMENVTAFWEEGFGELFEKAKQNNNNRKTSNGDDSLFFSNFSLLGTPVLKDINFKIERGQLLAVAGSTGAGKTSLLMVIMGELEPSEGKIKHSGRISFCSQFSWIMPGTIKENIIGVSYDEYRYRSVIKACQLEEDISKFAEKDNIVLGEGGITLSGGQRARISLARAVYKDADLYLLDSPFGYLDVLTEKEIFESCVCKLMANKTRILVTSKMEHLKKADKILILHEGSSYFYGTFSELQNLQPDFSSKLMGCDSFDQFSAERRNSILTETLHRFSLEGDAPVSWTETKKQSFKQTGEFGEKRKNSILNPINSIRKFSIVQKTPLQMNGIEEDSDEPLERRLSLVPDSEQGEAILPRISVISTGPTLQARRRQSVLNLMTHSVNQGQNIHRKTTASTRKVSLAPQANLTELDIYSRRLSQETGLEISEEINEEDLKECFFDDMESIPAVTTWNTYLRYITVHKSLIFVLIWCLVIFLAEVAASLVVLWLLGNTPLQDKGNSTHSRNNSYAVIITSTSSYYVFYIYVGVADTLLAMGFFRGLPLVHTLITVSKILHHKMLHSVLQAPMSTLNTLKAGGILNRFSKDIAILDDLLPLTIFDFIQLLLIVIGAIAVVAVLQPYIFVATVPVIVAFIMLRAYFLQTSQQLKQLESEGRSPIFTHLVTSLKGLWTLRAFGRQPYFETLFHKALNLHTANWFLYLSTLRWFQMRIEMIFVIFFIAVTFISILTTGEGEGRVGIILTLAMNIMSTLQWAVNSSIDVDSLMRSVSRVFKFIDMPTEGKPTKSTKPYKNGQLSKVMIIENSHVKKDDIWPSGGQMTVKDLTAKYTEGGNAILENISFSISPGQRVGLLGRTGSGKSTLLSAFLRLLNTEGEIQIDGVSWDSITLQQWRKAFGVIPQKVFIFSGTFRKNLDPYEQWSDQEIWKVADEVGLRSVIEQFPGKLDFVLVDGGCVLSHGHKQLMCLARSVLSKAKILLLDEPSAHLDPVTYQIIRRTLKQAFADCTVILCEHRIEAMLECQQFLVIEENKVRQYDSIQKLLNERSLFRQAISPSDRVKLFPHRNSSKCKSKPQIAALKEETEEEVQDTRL
- TEST PROTOCOL: CFTR cell surface levels using HRP-tagged ΔF508-CFTR expressing CFBE cells, intrinsic corrector capacity
- Format: cell-based
- EXPERIMENTAL CONTEXT: HRP-tagged ΔF508-CFTR CFBE41o- cells, compounds alone (intrinsic corrector capacity), 20 hours at 33° C.; read-out: EC50
OBSERVABLE: EC50 (nM)

[
  {
    "CHEMICAL STRING": "CC(C)(C)c1nn(C2CCCCC2)c2nc(C(=O)O)cc(-c3cnc(N4CCOCC4)nc3)c12",
    "OBSERVABLE": "EC50",
    "UNIT": "nM",
    "CMP": "=",
    "RESULT NUMBER": 653
  },
  {
    "CHEMICAL STRING": "CC(=O)N1CCN(c2cc(C(=O)O)nc3c2c(C)nn3-c2ccccc2)CC1",
    "OBSERVABLE": "EC50",
    "UNIT": "nM",
    "CMP": ">",
    "RESULT NUMBER": 10000
  },
  {
    "CHEMICAL STRING": "Cc1nn(C2CCCC2)c2nc(C(=O)O)cc(-c3ccc(N4CCOCC4)nc3)c12",
    "OBSERVABLE": "EC50",
    "UNIT": "nM",
    "CMP": "=",
    "RESULT NUMBER": 3340
  },
  {
    "CHEMICAL STRING": "Cc1nn(-c2ccccc2)c2nc(C(=O)O)cc(OCCN(CC(C)C)C3CC3)c12",
    "OBSERVABLE": "EC50",
    "UNIT": "nM",
    "CMP": "=",
    "RESULT NUMBER": 1670
  }
]

---

- SUBJECT OF TEST: ΔF508-CFTR (Homo sapiens, UniProt P13569, DEL508-508)
- Construct: host or cells: CFBE41o-, doxycycline-inducible
- TEST PROTOCOL: CFTR cell surface levels using HRP-tagged ΔF508-CFTR expressing CFBE cells, intrinsic corrector capacity
- Type: cell-based
- EXPERIMENTAL CONTEXT: HRP-tagged ΔF508-CFTR expressing CFBE cells; intrinsic corrector capacity (no co-corrector); 33° C., 20 hours; read-out: EC50
OBSERVABLE: EC50

[
  {
    "MOLECULE": "COCCOCC1(F)CCCN(c2cc(C(=O)O)nc3c2c(C2CCC2)nn3-c2ccccc2)C1 (stereo not shown)",
    "OBSERVABLE": "EC50",
    "RESULT": "486 nM"
  },
  {
    "MOLECULE": "O=C(O)c1cc(OC2CCCCCC2)c2c(C3CCC3)nn(-c3ccccc3)c2n1",
    "OBSERVABLE": "EC50",
    "RESULT": "263 nM"
  },
  {
    "MOLECULE": "O=C(O)c1cc(N2CCC3(CC2)CCN(C2COC2)CC3)c2c(C3CCC3)nn(-c3ccc(F)cc3)c2n1",
    "OBSERVABLE": "EC50",
    "RESULT": "237 nM"
  },
  {
    "MOLECULE": "O=C(O)c1cc(N2CCC3C(CCN3C3CCOCC3)C2)c2c(C3CCC3)nn(-c3ccc(F)cc3)c2n1 (stereo not shown)",
    "OBSERVABLE": "EC50",
    "RESULT": "331 nM"
  },
  {
    "MOLECULE": "O=C(O)c1cc(N2CCC(O)CC2)c2c(C3CCC3)nn(-c3ccccc3)c2n1",
    "OBSERVABLE": "EC50",
    "RESULT": "629 nM"
  },
  {
    "MOLECULE": "O=C(O)c1cc(OC[C@H](F)C2CCOCC2)c2c(C3CCC3)nn(-c3ccccc3)c2n1",
    "OBSERVABLE": "EC50",
    "RESULT": "581 nM"
  },
  {
    "MOLECULE": "CCOCCN1CCN(c2cc(C(=O)O)nc3c2c(C2CCC2)nn3-c2ccccc2)CC1",
    "OBSERVABLE": "EC50",
    "RESULT": "388 nM"
  },
  {
    "MOLECULE": "CN1CCN(c2ccc(-c3cc(C(=O)O)nc4c3c(C3CCC3)nn4C3CCCCC3)cn2)CC1",
    "OBSERVABLE": "EC50",
    "RESULT": "348 nM"
  },
  {
    "MOLECULE": "CS(=O)(=O)NC1CCN(c2cc(C(=O)O)nc3c2c(C2CCC2)nn3-c2ccccc2)CC1",
    "OBSERVABLE": "EC50",
    "RESULT": "3340 nM"
  },
  {
    "MOLECULE": "O=C(O)c1cc(N2CCC(N3CCOCC3)CC2)c2c(C3CCC3)nn(-c3ccnc(OC(F)F)c3)c2n1",
    "OBSERVABLE": "EC50",
    "RESULT": "404 nM"
  },
  {
    "MOLECULE": "COCC(C)N1CCN(c2cc(C(=O)O)nc3c2c(C(C)C)nn3-c2ccc(F)cc2)CC1 (stereo not shown)",
    "OBSERVABLE": "EC50",
    "RESULT": "1670 nM"
  },
  {
    "MOLECULE": "CN(C)CCC1CCN(c2cc(C(=O)O)nc3c2c(C2CCC2)nn3-c2ccccc2)CC1",
    "OBSERVABLE": "EC50",
    "RESULT": "1120 nM"
  },
  {
    "MOLECULE": "CC(C)N1CCN(C2CCN(c3cc(C(=O)O)nc4c3c(C3CCC3)nn4C3CCCCC3)CC2)CC1",
    "OBSERVABLE": "EC50",
    "RESULT": "169 nM"
  },
  {
    "MOLECULE": "O=C(O)c1cc(N2CCN3C[C@H](O)C[C@H]3C2)c2c(C3CCC3)nn(-c3ccccc3)c2n1",
    "OBSERVABLE": "EC50",
    "RESULT": "6670 nM"
  },
  {
    "MOLECULE": "O=C(O)c1cc(N2CCC(N3CCOCC3)CC2)c2c(C3CCC3)nn(-c3ccc(F)c(F)c3)c2n1",
    "OBSERVABLE": "EC50",
    "RESULT": "260 nM"
  },
  {
    "MOLECULE": "COC[C@H]1CCN(CC2CCN(c3cc(C(=O)O)nc4c3c(C3CCC3)nn4-c3ccccc3)CC2)C1",
    "OBSERVABLE": "EC50",
    "RESULT": "489 nM"
  }
]
